// provenance: ChEMBL document CHEMBL3875217

Test: Tmax in BALB/c mouse at 271.2 mg/kg, po by LC/MS/MS analysis
Assay type: ADME, organism-based
Settings: in vivo
quantity: Tmax (min)

In [3]: df
Out[3]:
                         chemical_structure  quantity   val
0  C=C1C(=O)O[C@H]2[C@H]1CC/C(COC(=O)n1ccnc1)=C\CC[C@@]1(C)O[C@@H]21      Tmax  30.1

---

Assay: Tmax in BALB/c mouse at 200 mg/kg, po by LC/MS/MS analysis
Assay type: ADME, organism-based
Settings: in vivo
quantity: Tmax (h)

>>> print(df.to_string())
                         chemical_structure  quantity  scale_unit  val
0  C=C1C(=O)O[C@H]2[C@H]1CC/C(CO)=C\CC[C@@]1(C)O[C@@H]21      Tmax           h    2

---

Test: Total clearance in BALB/c mouse at 27.1 mg/kg, iv or 271.2 mg/kg, po by LC/MS/MS analysis
Assay type: ADME, organism-based
Settings: in vivo
quantity: clearance (mL/min/kg)

In [3]: df
Out[3]:
                         chemical_structure  val
0  C=C1C(=O)O[C@H]2[C@H]1CC/C(COC(=O)n1ccnc1)=C\CC[C@@]1(C)O[C@@H]21  200

---

Assay: Cmax in BALB/c mouse at 271.2 mg/kg, po by LC/MS/MS analysis
Assay type: ADME, organism-based
Parameters: dose 271.2 mg/kg, route oral
Details: in vivo
quantity: Cmax

>>> df
                         chemical_structure  quantity      val
0  C=C1C(=O)O[C@H]2[C@H]1CC/C(COC(=O)n1ccnc1)=C\CC[C@@]1(C)O[C@@H]21      Cmax  10.6 µM
